The origin of these recorded values is patent US9145425B2.

- System: Pseudomonas aeruginosa SR24
- assay.summary: Minimum Inhibitory Concentration (MIC), agar plate incubation, Japan Society for Chemotherapy standard method
- Assay type: cell-based
- run.parameters: Pseudomonas aeruginosa SR24; no enzyme, ceftazidime sensitive strain; 1000 cfu/spot; sensitive disc medium
attribute.measured: Minimum Inhibitory Concentration (MIC) (µg/mL)

Below: 3 compounds and their reported Minimum Inhibitory Concentration (MIC).
Inquiry: Request the reported Minimum Inhibitory Concentration (MIC) associated with CC(ON=C(C(=O)NC1C(=O)N2C(C(=O)[O-])=C(C[N+]34CCC(CC3)N(C(=O)c3ccc(O)c(O)c3Cl)CC4)CSC12)c1csc(N)n1)C(=O)[O-].[Na+] (centres unmarked)
Reply text: 0.063

Inquiry: Can you share its Minimum Inhibitory Concentration (MIC)? I mean this compound: CC(ON=C(C(=O)NC1C(=O)N2C(C(=O)[O-])=C(C[N+]3(CCNC(=O)c4ccc(O)c(O)c4Cl)CCCC3)CSC12)c1csc(N)n1)C(=O)[O-].[Na+] (centres unmarked)
Reply text: 0.125

Inquiry: Tell me the measured Minimum Inhibitory Concentration (MIC) of C[N+]1(CC2=C(C(=O)[O-])N3C(=O)C(NC(=O)C(=NOC(CC(=O)[O-])C(=O)[O-])c4csc(N)n4)C3SC2)C2CCC1CN(C(=O)c1ccc(O)c(O)c1Cl)C2.[Na+].[Na+] (centres unmarked) , please.
Reply text: 0.25

[I] Nc1nc(/C(=N/O[C@H](C(=O)[O-])c2ccccc2)C(=O)N[C@@H]2C(=O)N3C(C(=O)[O-])=C(C[N+]4(CCNC(=O)c5ccc(O)c(O)c5Cl)CCCC4)CS[C@H]23)ns1.[Na+]
[II] C[N+]1(CC2=C(C(=O)[O-])N3C(=O)[C@@H](NC(=O)/C(=N\O[C@@H](CC(=O)[O-])C(=O)[O-])c4csc(N)n4)[C@H]3SC2)[C@@H]2CC[C@H]1C[C@@H](NC(=O)c1ccc(O)c(O)c1F)C2.[Na+].[Na+] (some centres unmarked)
Inquiry: Two entries are listed, I and II . Which one carries the higher Minimum Inhibitory Concentration (MIC)? Bench note: the answer is the label of the chosen record.
Reply text: II
